- System: BDF1 mice, P388 leukemia ip, median survival T/C
- Assay Summary: NCI In Vivo Anticancer Drug Screen. Data for tumor model P388 Leukemia (intraperitoneal) in B6D2F1 (BDF1) mice
- Assay Conditions: endpoint: median survival time; dose: 200.0 mg/kg/injection; schedule: Q04DX003 (ip); vehicle: other
Toxic doses and inconclusive results are not listed. Rule for the calls: active = survival T/C of 150% or more; inactive = T/C below 125% in these data.
I would appreciate it if you answered using one of these outcomes: label 1 = active, label 0 = inactive

1. CCCCCCCCCCCCCCCCOCCCCCCCCCCCCCCCC = label 0
2. COc1ccc(C(C#N)CC(=O)c2ccc(OCc3ccccc3)c(OC)c2)cc1OC (stereo unspecified) = label 0
3. COc1ccc(Cc2ccc(O)cc2)cc1 = label 0
4. COc1cc2cc3c4cc(OC)c(OC)cc4cc[n+]3c(C)c2cc1OC (tested in a mixture with another compound) = label 1
5. CCCCCCCCCC(=O)CCCCC = label 0

Asked: Lab log entry: C=C(COc1ccc(Cl)cc1)COc1ccc(Cl)cc1 — outcome as called in the assay?
Given back: label 0

Asked: Look up the recorded call for O=[N+]([O-])c1ccc(C(F)(F)F)cc1 in this test.
Given back: label 0

Asked: I would be grateful if you could indicate the recorded call for CCc1ccccc1NC(=O)c1ccccc1Cl .
Given back: label 0

Asked: Could you kindly confirm the outcome this assay logged for CCOC(=O)CC(COC)C(C(=O)OCC)C(=O)OCC (stereo unspecified) ?
Given back: label 0

Asked: Query: recorded result category for CC1(O)CCC2C3CCC4=CC(=O)CCC4C3CCC21C (stereo unspecified) in this test
Given back: label 0

Asked: I'd appreciate the recorded outcome for O=S1(=O)C2CCCCC2(N2CCOCC2)C1c1ccccc1 (stereo unspecified) from this test.
Given back: label 0
